assay-target: hNav1.5 (Homo sapiens (Human), UniProt Q14524)
Sequence (Q14524 whole entry): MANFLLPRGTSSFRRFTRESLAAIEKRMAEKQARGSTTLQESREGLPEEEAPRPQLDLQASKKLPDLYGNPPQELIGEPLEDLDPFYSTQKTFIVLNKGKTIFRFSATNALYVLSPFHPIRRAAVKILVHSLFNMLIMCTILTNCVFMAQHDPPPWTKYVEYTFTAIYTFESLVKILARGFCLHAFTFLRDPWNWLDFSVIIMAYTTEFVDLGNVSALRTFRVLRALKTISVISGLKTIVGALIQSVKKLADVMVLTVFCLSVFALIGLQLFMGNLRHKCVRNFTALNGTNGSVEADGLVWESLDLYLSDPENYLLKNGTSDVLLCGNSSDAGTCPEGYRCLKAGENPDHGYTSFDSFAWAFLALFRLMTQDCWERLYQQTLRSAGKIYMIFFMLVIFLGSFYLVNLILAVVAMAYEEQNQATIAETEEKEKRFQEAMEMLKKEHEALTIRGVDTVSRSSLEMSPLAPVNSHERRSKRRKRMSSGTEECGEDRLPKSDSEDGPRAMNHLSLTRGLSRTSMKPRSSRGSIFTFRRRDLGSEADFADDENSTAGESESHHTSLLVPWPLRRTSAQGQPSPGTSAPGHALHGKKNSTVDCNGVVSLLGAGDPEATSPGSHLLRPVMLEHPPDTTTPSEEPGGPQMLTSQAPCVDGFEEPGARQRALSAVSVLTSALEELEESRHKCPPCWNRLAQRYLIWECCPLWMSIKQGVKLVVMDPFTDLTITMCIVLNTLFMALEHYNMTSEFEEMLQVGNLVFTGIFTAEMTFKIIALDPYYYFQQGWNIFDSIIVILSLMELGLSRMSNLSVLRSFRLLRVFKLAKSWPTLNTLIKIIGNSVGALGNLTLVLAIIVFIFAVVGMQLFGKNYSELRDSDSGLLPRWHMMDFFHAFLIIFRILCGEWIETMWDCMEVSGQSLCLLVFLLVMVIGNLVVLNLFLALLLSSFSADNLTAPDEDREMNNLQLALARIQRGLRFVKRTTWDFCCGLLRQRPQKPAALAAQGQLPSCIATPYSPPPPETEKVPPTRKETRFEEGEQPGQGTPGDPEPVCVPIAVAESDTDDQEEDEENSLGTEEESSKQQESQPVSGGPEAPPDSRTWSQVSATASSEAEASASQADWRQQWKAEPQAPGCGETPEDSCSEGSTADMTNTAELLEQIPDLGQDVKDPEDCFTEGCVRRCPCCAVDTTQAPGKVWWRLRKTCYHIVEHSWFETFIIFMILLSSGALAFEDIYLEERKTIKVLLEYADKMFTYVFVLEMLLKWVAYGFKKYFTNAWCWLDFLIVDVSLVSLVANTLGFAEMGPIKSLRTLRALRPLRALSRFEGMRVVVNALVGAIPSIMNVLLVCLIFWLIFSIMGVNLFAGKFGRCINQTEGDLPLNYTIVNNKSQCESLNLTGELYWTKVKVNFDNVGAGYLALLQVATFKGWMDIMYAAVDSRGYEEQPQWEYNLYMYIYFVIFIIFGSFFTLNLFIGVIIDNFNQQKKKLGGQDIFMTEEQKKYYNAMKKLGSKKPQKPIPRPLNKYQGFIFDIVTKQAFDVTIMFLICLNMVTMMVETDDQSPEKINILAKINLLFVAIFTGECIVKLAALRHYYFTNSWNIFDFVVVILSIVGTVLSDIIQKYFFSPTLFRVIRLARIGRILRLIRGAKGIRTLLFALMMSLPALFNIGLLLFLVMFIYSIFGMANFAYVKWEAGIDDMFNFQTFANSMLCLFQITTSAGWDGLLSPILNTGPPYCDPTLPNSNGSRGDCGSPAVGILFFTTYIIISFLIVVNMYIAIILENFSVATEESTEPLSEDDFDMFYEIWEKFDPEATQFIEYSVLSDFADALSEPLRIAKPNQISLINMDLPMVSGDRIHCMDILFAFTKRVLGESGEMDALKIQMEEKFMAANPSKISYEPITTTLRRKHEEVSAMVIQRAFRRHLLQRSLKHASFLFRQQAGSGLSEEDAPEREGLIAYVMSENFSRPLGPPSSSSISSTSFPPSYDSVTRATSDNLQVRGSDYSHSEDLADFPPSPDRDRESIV
Where a name gives a salt, the structure may show the parent alone.
The threshold is 7 µM. Values of IC50 beneath it are tagged rule met; values meeting or exceeding it are tagged rule not met.

compound | class
COC(=O)Nc1cccc(C[C@H](N)c2ccccc2-c2noc3ccccc23)n1 [Example 124, hydrochloride] | rule met
CC(C)(c1ccccn1)[C@H](N)c1ccccc1-c1noc2ccccc12 [Example 49, hydrochloride] | rule met
N#Cc1cccc(C[C@H](N)c2ccccc2-c2noc3ccccc23)n1 [Example 116, hydrochloride] | rule not met
Cc1cccc(C[C@H](N)c2ccccc2-c2nn(C)c3ccccc23)n1 [Example 61, hydrochloride] | rule met
Cc1ccc2c(-c3ccccc3[C@@H](N)Cc3ccccn3)noc2c1 | rule not met
N[C@@H](Cc1cccc(CCO)n1)c1ccccc1-c1noc2ccccc12 [Example 100, hydrochloride] | rule met
N[C@@H](Cc1cccc(N2CCCC2)n1)c1ccccc1-c1noc2ccccc12 [Example 119, hydrochloride] | rule met
N[C@@H](Cc1cccc(-c2ncco2)n1)c1ccccc1-c1noc2ccccc12 [Example 118, hydrochloride] | rule not met
